Target: T1, human B7-H1 expressed on cells (human, UniProt Q9NZQ7 19-290)
T1 construct: whole, on cells; also called PD-L1; huB7-H1
T1 sequence (Q9NZQ7 19-290): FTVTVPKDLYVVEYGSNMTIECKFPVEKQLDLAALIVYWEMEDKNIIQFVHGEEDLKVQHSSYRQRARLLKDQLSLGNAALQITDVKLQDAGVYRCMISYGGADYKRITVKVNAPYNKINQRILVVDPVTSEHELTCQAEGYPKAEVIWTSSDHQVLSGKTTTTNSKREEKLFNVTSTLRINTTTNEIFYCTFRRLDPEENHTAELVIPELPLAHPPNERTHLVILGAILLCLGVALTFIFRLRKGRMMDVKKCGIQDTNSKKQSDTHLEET
Test: FACS, 5 µg/ml antibody, 293T cells transfected with human B7-H1
Property name: geo mean
Number only, no unit.

Specify geo mean for 2.7A4 (antibody, IgG2, V domains shown, also called mAb 2.7A4) VH: EVQLVESGGGLVKPGGSLRLSCAASGFTFSTYSMNWVRQAPGKGLEWVSSISSSGDYIYYADSVKGRFTISRDNAKNSLFLQMNSLKAEDTAVYYCARDLVTSMVAFDYWGQGTLVTVSS VL: SYELTQPPSVSVSPGQAARITCSGDALPQKYVFWYQQKSGQAPVLVIYEDSKRPSGIPERFSGSSSGTMATLTISGAQVEDEADYYCYSTDRSGNHRVFGGGTRLTVL and stop. 754
